# Tested on: 556581-035-R-J1-PDC spheroids with HUVEC/MSC, viability
# measurement_notes: Anticancer human tumor 556581-035-R-J1-PDC patient-derived ovarian carcinoma cell line growth inhibition [IpAb]; active means viability on the fitted dose curve at most 10% of control; inactive means the rest
# particulars: second compound 10 µM; first compound 1 µM
Can you answer with just one of these options? active, inactive

COc1c(OCCCN2CCOCC2)ccc2c3n(c(=NC(=O)c4cnc(N)nc4)nc12)CCN3 + CC(C)NCC(C(=O)N1CCN(c2ncnc3c2C(C)CC3O)CC1)c1ccc(Cl)cc1
active
Cn1nccc1Nc1nccc(-c2ccn(C(CO)c3ccc(Cl)c(F)c3)c(=O)c2)n1 (stereo not drawn) + CC(C)NCC(C(=O)N1CCN(c2ncnc3c2C(C)CC3O)CC1)c1ccc(Cl)cc1
inactive

Query :: Per the records of this test, what outcome belongs to CC1(C)CCC(CN2CCN(c3ccc(C(=O)NS(=O)(=O)c4ccc(NCC5CCOCC5)c([N+](=O)[O-])c4)c(Oc4cnc5[nH]ccc5c4)c3)CC2)=C(c2ccc(Cl)cc2)C1 + CC(C)NCC(C(=O)N1CCN(c2ncnc3c2C(C)CC3O)CC1)c1ccc(Cl)cc1 ?
Result :: inactive

###

Parameter viability, T/C: see the listing below.
# Tested on: 556581-035-R-J1-PDC spheroids with HUVEC/MSC, viability
# measurement_notes: Anticancer human tumor 556581-035-R-J1-PDC cell line growth inhibition [IpAb];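 further: spheroids exposed to compounds for 7 days before readout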
# particulars: second compound 10 µM; first compound 0.1 µM; active compounds read low
Express your answer in %, writing the number without its unit.

Use the examples below as a reference point.
Cn1ncc(Cl)c1-c1cc(C(=O)NC(CN)Cc2cccc(F)c2)sc1Cl (stereo not given) + CC(C)NCC(C(=O)N1CCN(c2ncnc3c2C(C)CC3O)CC1)c1ccc(Cl)cc1
55.7
COc1c(OCCCN2CCOCC2)ccc2c3n(c(=NC(=O)c4cnc(N)nc4)nc12)CCN3 + CC(C)NCC(C(=O)N1CCN(c2ncnc3c2C(C)CC3O)CC1)c1ccc(Cl)cc1
33.6
Cn1ncnc1[C@H]1c2n[nH]c(=O)c3cc(F)cc(c23)N[C@@H]1c1ccc(F)cc1 + CC(C)NCC(C(=O)N1CCN(c2ncnc3c2C(C)CC3O)CC1)c1ccc(Cl)cc1
36.2
Cn1nccc1Nc1nccc(-c2ccn(C(CO)c3ccc(Cl)c(F)c3)c(=O)c2)n1 (stereo not given) + CC(C)NCC(C(=O)N1CCN(c2ncnc3c2C(C)CC3O)CC1)c1ccc(Cl)cc1
31.3

Proceeding to the next compound to report its viability, T/C.
Query :: Find the measured viability, T/C: item C=CCn1c(=O)c2cnc(Nc3ccc(N4CCN(C)CC4)cc3)nc2n1-c1cccc(C(C)(C)O)n1 + CC(C)NCC(C(=O)N1CCN(c2ncnc3c2C(C)CC3O)CC1)c1ccc(Cl)cc1 , target or system 556581-035-R-J1-PDC spheroids with HUVEC/MSC, viability.
Result :: 35.9

###

# Test system: 556581-035-R-J1-PDC spheroids with HUVEC/MSC, viability
# measurement_notes: Anticancer human tumor 556581-035-R-J1-PDC cell line growth inhibition [IpAb];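 further: spheroids exposed to compounds for 7 days before readout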
# particulars: second compound 0.1 µM; first compound 1 µM; active compounds read low
We label by threshold. Values of viability, T/C strictly beneath 90% are TRUE. Values of 90% and up are FALSE.

Query :: Take the compound C=CCn1c(=O)c2cnc(Nc3ccc(N4CCN(C)CC4)cc3)nc2n1-c1cccc(C(C)(C)O)n1 + CCN1CCN(Cc2ccc(Nc3ncc(F)c(-c4cc(F)c5nc(C)n(C(C)C)c5c4)n3)nc2)CC1 and say whether its viability, T/C is less than 90%.
Result :: TRUE

Query :: What about this compound? CC1(C)CCC(CN2CCN(c3ccc(C(=O)NS(=O)(=O)c4ccc(NCC5CCOCC5)c([N+](=O)[O-])c4)c(Oc4cnc5[nH]ccc5c4)c3)CC2)=C(c2ccc(Cl)cc2)C1 + CCN1CCN(Cc2ccc(Nc3ncc(F)c(-c4cc(F)c5nc(C)n(C(C)C)c5c4)n3)nc2)CC1
Result :: FALSE

Query :: What about this compound? CCCS(=O)(=O)Nc1ccc(F)c(C(=O)c2c[nH]c3ncc(-c4ccc(Cl)cc4)cc23)c1F + CCN1CCN(Cc2ccc(Nc3ncc(F)c(-c4cc(F)c5nc(C)n(C(C)C)c5c4)n3)nc2)CC1
Result :: FALSE

Query :: What about this compound? C=CC(=O)N1CCN(c2nc(=O)n(-c3c(C)ccnc3C(C)C)c3nc(-c4c(O)cccc4F)c(F)cc23)C(C)C1 (stereo unspecified) + CC(C)NCC(C(=O)N1CCN(c2ncnc3c2C(C)CC3O)CC1)c1ccc(Cl)cc1
Result :: FALSE

Query :: What about this compound? Cn1nccc1Nc1nccc(-c2ccn(C(CO)c3ccc(Cl)c(F)c3)c(=O)c2)n1 (stereo unspecified) + CCN1CCN(Cc2ccc(Nc3ncc(F)c(-c4cc(F)c5nc(C)n(C(C)C)c5c4)n3)nc2)CC1
Result :: FALSE

Query :: What about this compound? COc1c(OCCCN2CCOCC2)ccc2c3n(c(=NC(=O)c4cnc(N)nc4)nc12)CCN3 + CC(C)NCC(C(=O)N1CCN(c2ncnc3c2C(C)CC3O)CC1)c1ccc(Cl)cc1
Result :: TRUE

Query :: What about this compound? COc1c(OCCCN2CCOCC2)ccc2c3n(c(=NC(=O)c4cnc(N)nc4)nc12)CCN3 + CCN1CCN(Cc2ccc(Nc3ncc(F)c(-c4cc(F)c5nc(C)n(C(C)C)c5c4)n3)nc2)CC1
Result :: TRUE

Query :: What about this compound? Cn1ncc(Cl)c1-c1cc(C(=O)NC(CN)Cc2cccc(F)c2)sc1Cl (stereo unspecified) + CCN1CCN(Cc2ccc(Nc3ncc(F)c(-c4cc(F)c5nc(C)n(C(C)C)c5c4)n3)nc2)CC1
Result :: TRUE

Query :: What about this compound? CC1(C)CCC(CN2CCN(c3ccc(C(=O)NS(=O)(=O)c4ccc(NCC5CCOCC5)c([N+](=O)[O-])c4)c(Oc4cnc5[nH]ccc5c4)c3)CC2)=C(c2ccc(Cl)cc2)C1 + CC(C)NCC(C(=O)N1CCN(c2ncnc3c2C(C)CC3O)CC1)c1ccc(Cl)cc1
Result :: FALSE

Query :: What about this compound? Cc1nc(NC(=O)N2CCCC2C(N)=O)sc1-c1ccnc(C(C)(C)C(F)(F)F)c1 (stereo unspecified) + CCN1CCN(Cc2ccc(Nc3ncc(F)c(-c4cc(F)c5nc(C)n(C(C)C)c5c4)n3)nc2)CC1
Result :: TRUE

Query :: What about this compound? Cn1nccc1Nc1nccc(-c2ccn(C(CO)c3ccc(Cl)c(F)c3)c(=O)c2)n1 (stereo unspecified) + CC(C)NCC(C(=O)N1CCN(c2ncnc3c2C(C)CC3O)CC1)c1ccc(Cl)cc1
Result :: TRUE

Query :: What about this compound? Cc1nc(NC(=O)N2CCCC2C(N)=O)sc1-c1ccnc(C(C)(C)C(F)(F)F)c1 (stereo unspecified) + CC(C)NCC(C(=O)N1CCN(c2ncnc3c2C(C)CC3O)CC1)c1ccc(Cl)cc1
Result :: TRUE

Query :: What about this compound? Cn1ncc(Cl)c1-c1cc(C(=O)NC(CN)Cc2cccc(F)c2)sc1Cl (stereo unspecified) + CC(C)NCC(C(=O)N1CCN(c2ncnc3c2C(C)CC3O)CC1)c1ccc(Cl)cc1
Result :: TRUE

Query :: What about this compound? C=CC(=O)N1CCN(c2nc(=O)n(-c3c(C)ccnc3C(C)C)c3nc(-c4c(O)cccc4F)c(F)cc23)C(C)C1 (stereo unspecified) + CCN1CCN(Cc2ccc(Nc3ncc(F)c(-c4cc(F)c5nc(C)n(C(C)C)c5c4)n3)nc2)CC1
Result :: FALSE

Query :: What about this compound? C=CCn1c(=O)c2cnc(Nc3ccc(N4CCN(C)CC4)cc3)nc2n1-c1cccc(C(C)(C)O)n1 + CC(C)NCC(C(=O)N1CCN(c2ncnc3c2C(C)CC3O)CC1)c1ccc(Cl)cc1
Result :: TRUE

###

# Test system: 556581-035-R-J1-PDC spheroids with HUVEC/MSC, viability
# measurement_notes: Anticancer human tumor 556581-035-R-J1-PDC cell line growth inhibition [IpAb];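 further: spheroids exposed to compounds for 7 days before readout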
# particulars: second compound 1 µM; first compound 3.16 µM; active compounds read low
assay_metric: viability, T/C (%)
Express your answer in %, writing the number without its unit.

Use the examples below as a reference point.
Cn1ncc(Cl)c1-c1cc(C(=O)NC(CN)Cc2cccc(F)c2)sc1Cl (stereo not given) + CC(C)NCC(C(=O)N1CCN(c2ncnc3c2C(C)CC3O)CC1)c1ccc(Cl)cc1
45.1
Cn1nccc1Nc1nccc(-c2ccn(C(CO)c3ccc(Cl)c(F)c3)c(=O)c2)n1 (stereo not given) + CC(C)NCC(C(=O)N1CCN(c2ncnc3c2C(C)CC3O)CC1)c1ccc(Cl)cc1
24.8
C=CCn1c(=O)c2cnc(Nc3ccc(N4CCN(C)CC4)cc3)nc2n1-c1cccc(C(C)(C)O)n1 + CCN1CCN(Cc2ccc(Nc3ncc(F)c(-c4cc(F)c5nc(C)n(C(C)C)c5c4)n3)nc2)CC1
42.5
Cn1nccc1Nc1nccc(-c2ccn(C(CO)c3ccc(Cl)c(F)c3)c(=O)c2)n1 (stereo not given) + CCN1CCN(Cc2ccc(Nc3ncc(F)c(-c4cc(F)c5nc(C)n(C(C)C)c5c4)n3)nc2)CC1
71.5

Proceeding to the next compound to report its viability, T/C.
Query :: Item under review: C=CC(=O)N1CCN(c2nc(=O)n(-c3c(C)ccnc3C(C)C)c3nc(-c4c(O)cccc4F)c(F)cc23)C(C)C1 (stereo not given) + CC(C)NCC(C(=O)N1CCN(c2ncnc3c2C(C)CC3O)CC1)c1ccc(Cl)cc1 . Reported viability, T/C?
Result :: 57
